experiment: Tmax in Sprague-Dawley rat plasma at 10 mg/kg, IG measured at 10 to 1440 mins by LC-MS/MS analysis; assay type: ADME, organism-based; settings: po, time 10-1440 min
reported property: Tmax

CC1CCCCN1CCCOc1cc2c3c(nccc3c1)-c1ccccc1C2=O (stereo unspecified)    3.33 h

----------
test: AUC (0 to 24 hrs) in Sprague-Dawley rat plasma at 10 mg/kg, IG measured at 10 to 1440 mins by LC-MS/MS analysis; type: ADME, organism-based; set-up: dose 10 mg/kg, time 10-1440 min, route ig; conditions: po
reported property: AUC(0-t)

CC1CCCCN1CCCOc1cc2c3c(nccc3c1)-c1ccccc1C2=O (stereo unspecified)    704 ng·h/mL

----------
assay: Half life in Sprague-Dawley rat plasma at 10 mg/kg, IG measured at 10 to 1440 mins by LC-MS/MS analysis; assay type: ADME, organism-based; conditions: po, time 10-1440 min
reported property: half-life (min)

CC1CCCCN1CCCOc1cc2c3c(nccc3c1)-c1ccccc1C2=O (stereo unspecified)    388

----------
pIC50: −log10 of the molar value.
Reported values: pIC50 for Acetylcholinesterase (Electrophorus electricus, UniProt O42275), one per item.
reported property: pIC50

CC1CCCCN1CCCCOc1cc2c3c(nccc3c1)-c1ccccc1C2=O (stereo not given)    6.60
CN1CCN(CCOc2cc3c4c(nccc4c2)-c2ccccc2C3=O)CC1    6.07
CC1CCCCN1CCOc1cc2c3c(nccc3c1)-c1ccccc1C2=O (stereo not given)    5.88
O=C1c2ccccc2-c2nccc3cc(OCCCCN4CCOCC4)cc1c23    5.14
O=C1c2ccccc2-c2nccc3cc(OCCCN4CCCCC4)cc1c23    6.85
O=C1c2ccccc2-c2nccc3cc(OCCCCN4CCN(CCO)CC4)cc1c23    6.04
O=C1c2ccccc2-c2nccc3cc(OCCN4CCCCC4)cc1c23    5.43
O=C1c2ccccc2-c2nccc3cc(OCCCN4CCN(CCO)CC4)cc1c23    6.72
O=C1c2ccccc2-c2nccc3cc(OCCN4CCN(CCO)CC4)cc1c23    6.38
O=C1c2ccccc2-c2nccc3cc(OCCCN4CCOCC4)cc1c23    4.99
O=C1c2ccccc2-c2nccc3cc(OCCCCN4CCCCC4)cc1c23    6.82
CN1CCN(CCCOc2cc3c4c(nccc4c2)-c2ccccc2C3=O)CC1    6.09
CC1CCCCN1CCCOc1cc2c3c(nccc3c1)-c1ccccc1C2=O (stereo not given)    7.35
CN1CCN(CCCCOc2cc3c4c(nccc4c2)-c2ccccc2C3=O)CC1    5.85
O=C1c2ccccc2-c2nccc3cc(OCCN4CCOCC4)cc1c23    4.71

----------
assay: Cmax in Sprague-Dawley rat plasma at 10 mg/kg, IG measured at 10 to 1440 mins by LC-MS/MS analysis; assay type: ADME, organism-based; parameters: dose 10 mg/kg, time 10-1440 min, route ig; details: po
reported property: Cmax (ng/mL)

CC1CCCCN1CCCOc1cc2c3c(nccc3c1)-c1ccccc1C2=O (stereo unspecified)    68.5

----------
molecular target: Amyloid-beta precursor protein (Homo sapiens) (UniProt P05067); experiment: Inhibition of amyloid beta (1 to 42) (unknown origin) self-induced aggregation at 25 uM measured after 46 to 48 hrs by Thioflavin binding assay relative to control; settings: time 46-48 hrs
Sequence (P05067 whole entry): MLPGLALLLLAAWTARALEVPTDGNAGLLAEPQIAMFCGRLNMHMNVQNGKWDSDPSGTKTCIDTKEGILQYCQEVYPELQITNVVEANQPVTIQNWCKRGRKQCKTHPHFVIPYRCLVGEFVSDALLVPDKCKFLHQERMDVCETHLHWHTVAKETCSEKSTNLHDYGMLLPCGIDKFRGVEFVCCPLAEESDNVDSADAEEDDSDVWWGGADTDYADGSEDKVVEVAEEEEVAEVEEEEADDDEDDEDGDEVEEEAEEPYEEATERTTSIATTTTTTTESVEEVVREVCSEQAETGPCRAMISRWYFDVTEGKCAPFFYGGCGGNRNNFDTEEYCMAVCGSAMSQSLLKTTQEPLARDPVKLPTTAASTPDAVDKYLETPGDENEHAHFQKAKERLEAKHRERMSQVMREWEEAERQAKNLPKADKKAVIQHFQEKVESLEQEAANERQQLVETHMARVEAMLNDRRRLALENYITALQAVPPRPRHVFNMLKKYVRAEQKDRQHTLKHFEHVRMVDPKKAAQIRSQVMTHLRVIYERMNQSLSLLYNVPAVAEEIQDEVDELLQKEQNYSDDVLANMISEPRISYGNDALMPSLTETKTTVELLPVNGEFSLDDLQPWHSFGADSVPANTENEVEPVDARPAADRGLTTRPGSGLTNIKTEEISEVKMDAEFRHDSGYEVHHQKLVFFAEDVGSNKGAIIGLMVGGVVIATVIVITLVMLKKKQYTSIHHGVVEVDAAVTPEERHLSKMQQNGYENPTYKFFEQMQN
reported property: inhibition (%)

CC1CCCCN1CCOc1cc2c3c(nccc3c1)-c1ccccc1C2=O (stereo unspecified)    16.2
CN1CCN(CCCOc2cc3c4c(nccc4c2)-c2ccccc2C3=O)CC1    29.1
O=C1c2ccccc2-c2nccc3cc(OCCN4CCN(CCO)CC4)cc1c23    14.9
CN1CCN(CCCCOc2cc3c4c(nccc4c2)-c2ccccc2C3=O)CC1    25.4
O=C1c2ccccc2-c2nccc3cc(OCCCN4CCCCC4)cc1c23    41.2
CC1CCCCN1CCCCOc1cc2c3c(nccc3c1)-c1ccccc1C2=O (stereo unspecified)    34.8
O=C1c2ccccc2-c2nccc3cc(OCCCCN4CCN(CCO)CC4)cc1c23    26.1
O=C1c2ccccc2-c2nccc3cc(OCCCN4CCN(CCO)CC4)cc1c23    9.7
O=C1c2ccccc2-c2nccc3cc(OCCN4CCCCC4)cc1c23    27.5
O=C1c2ccccc2-c2nccc3cc(OCCN4CCOCC4)cc1c23    24.4
CC1CCCCN1CCCOc1cc2c3c(nccc3c1)-c1ccccc1C2=O (stereo unspecified)    35.3

Provenance of the data: ChEMBL document CHEMBL5120794
